Tested on: M. tuberculosis H37Rv growth inhibition
measurement.protocol: M. tuberculosis H37Rv growth inhibitors, H37Rv strain (AID 1626)
assay.setup: measured here: IC90 against H37Rv
quantity.name: IC90 (µM)
Answer format: numeric, µM implied, no suffix.

Lab note: compound COc1ccc(-c2nnc(NC(=O)C3=COCCO3)o2)cc1 tested on M. tuberculosis H37Rv growth inhibition; recorded IC90 was 19.7

Observed IC90, M. tuberculosis H37Rv growth inhibition, CCOc1ccc(N=C/C=C/c2ccccc2)c(O)c1 : 5.41

// returns IC90 for CN(C)c1ccc(N=Nc2ccccc2C(=O)OCC(=O)NCC2CCCCC2)cc1 with M. tuberculosis H37Rv growth inhibition; value = 17.2

Measured on M. tuberculosis H37Rv growth inhibition, Cc1cc(C)c2nc(/N=C(\N)NC(=O)Nc3ccccc3)nc(C)c2c1 has a documented IC90 of 5.93

With M. tuberculosis H37Rv growth inhibition as the test system, Cc1[nH]c2ccccc2c1C1=NNC(=Nc2ccc(F)cc2)SC1 showed IC90 of 49.8

IC90 of CC(C)OC(=O)CSc1nnc(-c2ccc(Cl)cc2Cl)o1 , assay on M. tuberculosis H37Rv growth inhibition, is 9.2

Cc1cccc(N2CCN(C(=O)/C=C/c3cccs3)CC2C)c1 (stereo not given) tested on M. tuberculosis H37Rv growth inhibition gave IC90: 26.5

Form field, IC90 with M. tuberculosis H37Rv growth inhibition, item COc1ccc(N=c2cc(-c3ccc(O)cc3)oc3ccccc23)cc1 : 9.5

Value sought: IC90, system M. tuberculosis H37Rv growth inhibition, item CCOC(=O)Cc1csc(NC(=O)c2c(O)c3ccccc3n(CCC(C)C)c2=O)n1 . Result: 0.224

Record CCN(CC)CCCNc1nc2cc(OC)c(OC)cc2c2nc(-c3ccccc3)nn12 / M. tuberculosis H37Rv growth inhibition, IC90 recorded as 13.8

Value sought: IC90, system M. tuberculosis H37Rv growth inhibition, item CCn1ccnc1CN(C)Cc1cn(-c2ccc(C)cc2)nc1-c1cccc(C)c1 . Result: 3.64

Entry O=C(Nc1nnc(SCc2ccc(F)cc2)s1)c1ccccn1 ; assay system M. tuberculosis H37Rv growth inhibition; IC90 recorded at 5.05

Readout IC90 for c1ccc(N2CCN(c3nc(NCc4ccco4)c4ccccc4n3)CC2)cc1 , test system M. tuberculosis H37Rv growth inhibition, was 14.4

Test item CCOC(=O)COc1ccc2ccccc2c1/C=C/[N+](=O)[O-] ; M. tuberculosis H37Rv growth inhibition; reported IC90 was 3.47

Known value: M. tuberculosis H37Rv growth inhibition IC90 of the compound CCOC(=O)c1cnc(-n2nc(C)cc2C)nc1N(CC)CC equals 6.53

Per the reported M. tuberculosis H37Rv growth inhibition data, Cc1ccccc1N1CCN(C2=NC(=O)/C(=C\c3cccs3)S2)CC1 has IC90 of 21

Param item: C[n+]1c2n(c3ccccc31)N=C(c1cc(C(C)(C)C)c(O)c(C(C)(C)C)c1)CS2 ; param system: M. tuberculosis H37Rv growth inhibition; output IC90: 3.14

// returns IC90 for O=C(CSc1nnc(CNc2cccc(Cl)c2)o1)OC1CCCCC1 with M. tuberculosis H37Rv growth inhibition; value = 1.4

The recorded IC90 with M. tuberculosis H37Rv growth inhibition for CCCC(=O)Nc1cccc(-c2nc3ccccc3c(=O)o2)c1 was 12.1

Query O=C(c1ccc2c(c1)[nH]c(=S)n1c3ccccc3nc21)N1CCN(c2cccc(Cl)c2)CC1 on M. tuberculosis H37Rv growth inhibition; IC90 returned: 32.3

M. tuberculosis H37Rv growth inhibition assay, compound CCOc1ccc(NC2=C(OC)C(=O)c3ccccc3C2=O)cc1 , recorded IC90 = 44.1

Per the reported M. tuberculosis H37Rv growth inhibition data, COc1ccc(-c2nn(-c3ccccc3)cc2/C=N/N=C(N)N)cc1OC has IC90 of 22.6

Query Cc1ccc(OCCN2CCN(CC(O)Cn3c4ccccc4c4ccccc43)CC2)cc1 (stereo not given) on M. tuberculosis H37Rv growth inhibition; IC90 returned: 11.4

# lookup: Cc1ccc(-c2cc(C(=O)Nc3nccs3)c3ccccc3n2)c(C)c1 on M. tuberculosis H37Rv growth inhibition, IC90 = 11.9

# IC90 measured on M. tuberculosis H37Rv growth inhibition for item CCCn1c(NC(=O)c2cccc(C)c2C)nc2ccccc21 = 3.63

Tested system M. tuberculosis H37Rv growth inhibition; IC90 recorded for Cc1nn2c(NCCCn3ccnc3)cc(C(C)C)nc2c1-c1ccccc1 was 11.9

---

Tested on: M. tuberculosis H37Rv growth inhibition
measurement.protocol: M. tuberculosis H37Rv growth inhibitors, H37Rv strain (AID 1626)
quantity.name: IC50

Entry O=C(NC(=O)c1ccc(C(F)(F)F)cc1)Nc1ccc(-c2cnco2)cc1 ; IC50 = 49.6 µM

So, Cc1cc(NC(=O)C2CCCCC2)n(-c2nc3ccccc3[nH]2)n1 ? Its IC50 was 2.54 µM

Briefly, IC50 measured for CCOc1ccc(NCc2ccccc2OCc2cccc(F)c2)cc1 : 8.84 µM

So, Cc1c2c(nc3ccccc13)CCC(C)C2 (stereo unspecified) ? Its IC50 was 16.6 µM

Item: Cc1ccccc1OCC(=O)Nc1nc2ccccc2[nH]1 | IC50: 4.82 µM

// field: IC50; key: N=C1SCC(=O)N1c1ncc(Cc2ccc(F)cc2)s1 ; value = < 0.195 µM

---

System: M. tuberculosis H37Rv growth inhibition
measurement.protocol: M. tuberculosis H37Rv growth inhibitors, H37Rv strain (AID 1626)
assay.setup: measured here: IC90 against H37Rv
So I've got a bunch of compounds here, and I need their IC90 values.
Express the result in µM but write the number alone.

COc1ccc(C(CCN2CCCCC2)c2c(OC)cc(OC)c3c(-c4ccccc4)cc(=O)oc23)cc1 (stereo not given) yielded IC90 of 10.9

Note to self: IC90 recorded for CCOc1ccc(NC(=O)CN2CCN(CC(=O)Nc3ccc(Cl)c(C(F)(F)F)c3)CC2)cc1 was 11.3

Reported IC90 of CCCCCc1cc(=O)oc2c(C(CCN3CCCCC3)c3cc(OC)c(OC)c(OC)c3)c(OC)cc(OC)c12 (stereo not given) : 5.62

---

Tested on: M. tuberculosis H37Rv growth inhibition
measurement.protocol: M. tuberculosis H37Rv growth inhibitors, H37Rv strain (AID 1626)
assay.setup: measured here: IC90 against H37Rv
Rule: IC90 below 4 µM gives T. Equal to or above 4 µM gives F.

Just wondering, is IC90 of Cc1cccn2c(=O)c3cc(C(=O)NCc4ccco4)c(=N)n(CCc4ccccc4)c3nc12 below 4 µM? F

Determine whether this compound shows IC90 lower than 4 µM (ties excluded): CCCN(CC1CC1)C(=O)COC(=O)c1ccc2c(c1)C(=O)N(c1ccc(OCC)cc1)C2=O F

Quick check: does O=C1c2cccc3c([N+](=O)[O-])ccc(c23)C(=O)N1Cc1cccnc1 have IC90 under 4 µM? T

Is IC90 strictly under 4 µM for the entry O=c1[nH]c(-c2ccccn2)nc(C(F)(F)F)c1Br ? T

Does the reported IC90 of the following compound sit strictly below 4 µM? O=C1CSc2ccc(C(=O)Nc3cccc(S(=O)(=O)Nc4ccc(Br)cc4)c3)cc2N1 F

Please let me know if CCOc1ccc(N=CC2=C(O)CC(C)(C)CC2=O)cc1 shows IC90 below 4 µM. F

Hello, I'm reviewing records and need to know if IC90 of COc1ccc(N2CCN(CC(=O)Nc3nc4c(s3)CC(C)CC4)CC2)cc1 (stereo not given) is below 4 µM. Could you check? F

Dear colleague, could you confirm whether IC90 of O=C1/C(=C/c2ccccc2[N+](=O)[O-])COc2ccccc21 falls below 4 µM? Thanks. T

Hi there! Is IC90 for O=C(Nc1nc2c(F)cc(F)cc2s1)c1ccccn1 below 4 µM, do you know? T

Given CCCCCc1cc(=O)oc2c(C(CCN3CCCC3)c3ccc(N(C)C)cc3)c(OC)cc(OC)c12 (stereo not given) , is recorded IC90 strictly lower than 4 µM? F

---

Tested on: M. tuberculosis H37Rv growth inhibition
measurement.protocol: M. tuberculosis H37Rv growth inhibitors, H37Rv strain (AID 1626)
assay.setup: measured here: IC90 against H37Rv
Response field label takes fulfilled when IC90 is strictly below 6 µM and not fulfilled in all other cases.

# TODO verify IC90 < 6 µM strictly for this compound: Cc1ccc(C(=O)/C=C/C(=O)c2ccc(C)cc2)cc1 not fulfilled

Decide: IC90 of CCc1ccc(NC(=O)c2cnc(N3CCN(c4ccccn4)CC3)c3ccccc23)cc1 strictly below 6 µM? fulfilled

is_below(IC90, 6 µM) for O=C(Nc1nc(-c2ccc(-c3ccccc3)cc2)cs1)c1cnccn1 ? not fulfilled

Dear reviewer, please state whether CCc1ccc(-c2cc(C(F)(F)F)n3nc(C(=O)Nc4c(C)nn(Cc5ccc(F)cc5)c4C)cc3n2)s1 has IC90 strictly beneath 6 µM. not fulfilled

Hi there! Is IC90 for Cc1ccc(-c2cc(C(F)F)n3ncc(C(=O)Nc4c(C)nn(Cc5ccccc5Cl)c4C)c3n2)cc1 below 6 µM, do you know? not fulfilled

Please state whether IC90 is below 6 µM for Cc1nc2ccc(NC(=O)N(C(C)C)C(C)C)cc2s1 not fulfilled

IC90 strictly < 6 µM for this compound? C=C(C)C1Cc2c(C)nn(-c3nc(C)cc(C)n3)c2C1 (configuration not stated) not fulfilled

State whether 6 µM exceeds IC90 recorded for COC(=O)C1C(O)C(C)C(O)C(C)(O)/C=C\C=C(/C)C(=O)Nc2c(C)c(OC(C)=O)c3c(c2O)C(=O)C(C)=C2OCOC(=C23)/C(C)=C/C(C)(O)C(O)C(C)C1O (configuration not stated) . fulfilled

Identify whether the compound Cc1cccc(OCCCCc2c(C)n[nH]c2C)c1 records IC90 below 6 µM. not fulfilled

Determine whether this compound shows IC90 lower than 6 µM (ties excluded): CCCC(=O)N1CCN(c2ccc(NC(=O)c3ccc([N+](=O)[O-])o3)cc2)CC1 fulfilled

Hi there! Is IC90 for CCOc1ccc2nc(NC(=O)c3ccccn3)sc2c1 below 6 µM, do you know? fulfilled

Field: below-cutoff. Rule: recorded IC90 strictly less than 6 µM. Subject: CCOC(=O)c1ccc(NC(=O)CN2C(=O)C(=O)N(CC(C)C)C2=O)cc1 not fulfilled

I'd appreciate it if you could check whether O=C(OCC#CCSc1nc2ccccc2o1)c1cc2ccccc2o1 has IC90 smaller than 6 µM. not fulfilled

IC90 under 6 µM? Item: COc1ccc(NC(=O)CN(C)CC(=O)Nc2ccc3c(c2)CCC3)cc1 not fulfilled

Hello, I'm reviewing records and need to know if IC90 of O=C(Oc1ccc(Cl)cc1)c1ccc(N2CCOCC2)c([N+](=O)[O-])c1 is below 6 µM. Could you check? fulfilled

Confirm or reject: IC90 of COc1ccc(Br)cc1C(=O)Nc1ccccc1N1CCN(C(=O)c2ccccc2)CC1 lies strictly below 6 µM not fulfilled

Quick check: does CCCCNC(=O)COC(=O)c1cc(Br)ccc1Cl have IC90 under 6 µM? not fulfilled

Confirm or reject: IC90 of O=C(CCc1nc(-c2cccs2)no1)Nc1cnc2ccccc2c1 lies strictly below 6 µM not fulfilled

Does the reported IC90 of Cc1nn(-c2ccccc2)c(Cl)c1/C=N/O stay below 6 µM? not fulfilled

Please indicate whether the reported IC90 of O=S(=O)(Nc1nc2ccccc2nc1Nc1ccc(N2CCOCC2)cc1)c1cc(Cl)ccc1Cl is strictly below 6 µM. not fulfilled

Dear reviewer, please state whether O=C(CCSc1nnc(-c2ccccc2)o1)N1CCOCC1 has IC90 strictly beneath 6 µM. not fulfilled

In plain terms, does CCCOC(=O)CSc1nc(N)c(C#N)c(-c2ccco2)c1C#N come in under 6 µM for IC90? fulfilled

Identify whether the compound CCOC(=O)C1=C(c2ccccc2)NC(N)=NC1c1ccc(OCc2ccc(Cl)cc2)c(OC)c1 (configuration not stated) records IC90 below 6 µM. fulfilled

Is 6 µM strictly greater than the compound's reported IC90? compound: CNc1nc(SC)nc2ccsc12 not fulfilled

Would you kindly verify if IC90 of O=C(OC(c1ccccc1)c1nccc2ccccc12)c1cc([N+](=O)[O-])cc([N+](=O)[O-])c1 (configuration not stated) is strictly less than 6 µM? fulfilled

Take the compound Cc1coc2c1C(=O)C(=O)c1c-2ccc2c(C)cccc12 and say whether its IC90 is less than 6 µM. fulfilled

Here's an entry: CCCCCc1cc(=O)oc2c(C(CCN3CCCC(C)C3)c3ccc(OC)cc3)c(OC)cc(OC)c12 (configuration not stated) . Is its IC90 below 6 µM? fulfilled

Regarding COc1ccc(NC(=O)CSC2=NCCN2)cc1 , kindly confirm whether its IC90 is beneath 6 µM. not fulfilled

Determine whether this compound shows IC90 lower than 6 µM (ties excluded): O=C(CCN1C(=O)C2CCCCC2C1=O)Nc1nc(-c2ccc(F)c(F)c2)cs1 (configuration not stated) not fulfilled

Bench note: check whether O=C(Nc1nnc(-c2ccccc2)o1)c1nc2ccccc2s1 shows IC90 below 6 µM not fulfilled

Here's an entry: CC(C)(C)c1ccc(-c2nc(NCc3cccnc3)c3ccccc3n2)cc1 . Is its IC90 below 6 µM? not fulfilled

Given c1ccc(CNc2nc(CN3CCOCC3)nc3scc(-c4ccccc4)c23)cc1 , is recorded IC90 strictly lower than 6 µM? not fulfilled

Lab note: confirm whether the reported IC90 for this compound is below 6 µM, equality not counting. compound: COC(=O)CSc1nc2ccc(NC(=O)c3ccccc3C(=O)N3CCOCC3)cc2s1 not fulfilled

Consider the compound Cc1ccc(Oc2cc(NC(=O)CCCn3nc([N+](=O)[O-])cc3C)cc([N+](=O)[O-])c2)cc1 . Is its IC90 strictly less than 6 µM? not fulfilled

Does the reported IC90 of COc1ccc(-c2noc(CCC(=O)Nc3ccc4c(c3)OCCO4)n2)cc1 stay below 6 µM? not fulfilled

Determine whether this compound shows IC90 lower than 6 µM (ties excluded): CCOc1ccc(OCC)c(NC(=O)CN2CCN(c3cc(C)ccc3C)CC2)c1 not fulfilled

State whether 6 µM exceeds IC90 recorded for CC(=O)OCCCNc1cc(Sc2nc3ccccc3s2)c2nonc2c1[N+](=O)[O-] . not fulfilled

is_below(IC90, 6 µM) for O=[N+]([O-])c1cccn2cc(-c3ccc(Br)cc3)nc12 ? not fulfilled
